procedure_details: In vitro permeability across MDCK cell monolayer
Type: in vitro ADME, Canine
measurement_conditions: dog, MDCK, test compound 5 μM, 2 h at 37° C., apical to basolateral, read-out: Permeability Forward A > B
The entries below are paired with their reported Papp A→B at 2 h, 5 μM.

{"compound": "COC(=O)NC(Cc1cc(F)cc(F)c1)C(O)CNC1(c2cccc(-n3cccn3)c2)CC1 (stereo not shown)", "Papp A→B at 2 h, 5 μM [×10⁻⁶ cm/s]": 17}
{"compound": "O=C(Cc1ccccc1)NC(Cc1cc(F)cc(F)c1)C(O)CNC1(c2cccc(-n3cccn3)c2)CC1 (stereo not shown)", "Papp A→B at 2 h, 5 μM [×10⁻⁶ cm/s]": 22.1}
{"compound": "CC(=O)NC(Cc1cc(F)cc(F)c1)C(O)CNC1(c2c(F)ccc(-n3cccn3)c2F)CC1 (stereo not shown)", "Papp A→B at 2 h, 5 μM [×10⁻⁶ cm/s]": 19.4}
{"compound": "CC(=O)NC(Cc1cc(F)cc(F)c1)C(O)CNC1(c2cccc(N3CCSCC3)c2)CC1 (stereo not shown)", "Papp A→B at 2 h, 5 μM [×10⁻⁶ cm/s]": 10.9}
{"compound": "CC(=O)NC(Cc1cc(F)cc(F)c1)C(O)CNC1(c2cccc(C(F)C(C)(C)F)c2)CC1 (stereo not shown)", "Papp A→B at 2 h, 5 μM [×10⁻⁶ cm/s]": 12.7}
{"compound": "CC(=O)NC(Cc1cc(F)cc(F)c1)C(O)CNC1(c2cccc(C(C)C(F)(F)F)c2)CC1 (stereo not shown)", "Papp A→B at 2 h, 5 μM [×10⁻⁶ cm/s]": 12.6}
{"compound": "CC(=O)NC(Cc1cc(F)cc(F)c1)C(O)CNC1(c2cccc(C(C)(C)C(F)F)c2)CC1 (stereo not shown)", "Papp A→B at 2 h, 5 μM [×10⁻⁶ cm/s]": 12.8}
